tested.on: CAMKK1 (human)
experiment.description: radiometric filter-binding kinase assay, Kinase HotSpot
test.parameters: compound 0.5 µM; ATP 10 µM
experimental.endpoint: residual activity (%)
Reply with just the number (in %).

Examples with answers:
> print(dat)
                                smiles.data  experimental.endpoint  obs.value
1         O=C1NC(=O)/C(=C\c2ccc3nccnc3c2)S1      residual activity       81.8
2    O=C1Cc2c([nH]c3ccc(Br)cc23)-c2ccccc2N1      residual activity       99.8
3  O=C(Nc1cccc(Nc2cc(Nc3cccc(C(F)(F)F)c3)ncn2)c1)C1CC1      residual activity        116
4  Nc1nccc(-c2c(-c3ccc(F)cc3)ncn2C2CCNCC2)n1      residual activity        103
5  CN(C)C[C@H]1CCn2c(c(C3=C(c4cn(C)c5ccccc45)C(=O)NC3=O)c3ccccc32)C1      residual activity        116
6         O=C(O)/C=C/c1cc(Br)c(Br)c(Br)c1Br      residual activity        105
7  CC(C)[C@H](CO)Nc1nc(Nc2cc(N)cc(Cl)c2)c2ncn(C(C)C)c2n1      residual activity       86.8
8  O=C1NC(=O)C(c2c[nH]c3ccccc23)=C1c1c[nH]c2ccccc12      residual activity        114

[in] Specify residual activity for Cn1cnc2cc3c(Nc4cccc(Br)c4)ncnc3cc21 and stop.
[out] 107

[in] Specify residual activity for CC(=O)O/N=C1\C(=C2\C(=O)Nc3cc(Br)ccc32)Nc2ccccc21 and stop.
[out] 72.7

[in] Specify residual activity for Nc1nnc2[nH]c3ccccc3nc1-2 and stop.
[out] 112

----------
List of residual activity values.
tested.on: PRKACG (human)
experiment.description: radiometric filter-binding kinase assay, Kinase HotSpot
test.parameters: compound 0.5 µM; ATP 10 µM
Reply with just the number (in %).

> print(dat)
                                smiles.data       tested.on  obs.value
1             COc1cc2ncc(-c3ccccc3)nc2cc1OC  PRKACG (human)       87.6
2    O=C1Cc2c([nH]c3ccc(Br)cc23)-c2ccccc2N1  PRKACG (human)        105
3  COc1cc2ncnc(N3CCN(C(=O)Nc4ccc(Oc5ccccc5)cc4)CC3)c2cc1OC  PRKACG (human)        103

[in] Specify residual activity for Oc1ccc(Nc2nc(-c3ccc(Cl)cc3)cs2)cc1 and stop.
[out] 112

[in] Specify residual activity for CN(C)C[C@H]1CCn2c(c(C3=C(c4cn(C)c5ccccc45)C(=O)NC3=O)c3ccccc32)C1 and stop.
[out] 108

----------
tested.on: GRK4 (human) (UniProt P32298)
Sequence (P32298 whole entry, looked up): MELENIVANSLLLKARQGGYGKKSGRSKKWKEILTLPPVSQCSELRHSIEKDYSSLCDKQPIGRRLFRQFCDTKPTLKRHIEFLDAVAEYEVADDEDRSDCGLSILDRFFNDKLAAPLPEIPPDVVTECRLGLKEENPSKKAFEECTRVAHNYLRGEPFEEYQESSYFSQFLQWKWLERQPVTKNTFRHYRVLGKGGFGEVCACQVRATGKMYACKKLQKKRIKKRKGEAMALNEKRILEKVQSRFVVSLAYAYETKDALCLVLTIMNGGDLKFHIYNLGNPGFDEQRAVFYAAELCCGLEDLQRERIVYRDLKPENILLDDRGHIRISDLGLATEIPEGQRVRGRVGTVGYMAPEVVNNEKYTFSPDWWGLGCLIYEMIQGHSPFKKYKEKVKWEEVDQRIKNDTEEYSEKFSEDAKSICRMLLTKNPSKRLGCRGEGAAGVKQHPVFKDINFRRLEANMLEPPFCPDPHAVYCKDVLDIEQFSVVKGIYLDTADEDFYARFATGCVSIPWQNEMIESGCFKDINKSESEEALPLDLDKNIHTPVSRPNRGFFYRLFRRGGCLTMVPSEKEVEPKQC
experiment.description: radiometric filter-binding kinase assay, Kinase HotSpot
test.parameters: compound 0.5 µM; ATP 10 µM
experimental.endpoint: residual activity (%)
Reply with just the number (in %).

Examples with answers:
> print(dat)
                                smiles.data  units.label  obs.value
1           Cc1nc2cc3nc(-c4cccs4)cnc3cc2n1C            %        104
2  CC(C)c1nn(-c2c(Cl)cccc2Cl)c2nc(Cc3ccc(OCCO)cc3)nc(O)c12            %       97.3
3  O=C(Nc1cccc(Nc2cc(Nc3cccc(C(F)(F)F)c3)ncn2)c1)C1CC1            %        104

[in] Specify residual activity for Cn1sc(=O)n(Cc2ccccc2)c1=O and stop.
[out] 101

[in] Specify residual activity for O=C1NC(=O)/C(=C\c2ccc3nccnc3c2)S1 and stop.
[out] 106
